Recorded values, source patent US10919943B2.

# System: HAB1
# Method summary: Yeast two hybrid of pBD-PYR1 site saturation mutants with pACT-HAB1 on 10 μM ABA, β-galactosidase staining
# Assay type: cell-based, Arabidopsis
# Design: key: x: Mutations in PYR1 that disrupt ABA-induced binding to PYR1 to HAB1
# Settings: S. cerevisiae Y190, 10 μM ABA; dead = lack of visible staining in comparison to wild type control
Measurement type: Mutations in PYR1 that disrupt ABA-induced binding to PYR1 to HAB1

Molecule: H115L: PYR1 mutant (protein, UniProt O49686 1-191, looked up, variant H115L) Abscisic acid receptor PYR1: MPSELTPEERSELKNSIAEFHTYQLDPGSCSSLHAQRIHAPPELVWSIVRRFDKPQTYKHFIKSCSVEQNFEMRVGCTRDVIVISGLPANTSTERLDILDDERRVTGFSIIGGELRLTNYKSVTTVHRFEKENRIWTVVLESYVVDMPEGNSEDDTRMFADTVVKLNLQKLATVAEAMARNSGDGSGSQVT
Recorded result: x
//
Molecule: L87T: PYR1 mutant (protein, UniProt O49686 1-191, looked up, variant L87T) Abscisic acid receptor PYR1: MPSELTPEERSELKNSIAEFHTYQLDPGSCSSLHAQRIHAPPELVWSIVRRFDKPQTYKHFIKSCSVEQNFEMRVGCTRDVIVISGTPANTSTERLDILDDERRVTGFSIIGGEHRLTNYKSVTTVHRFEKENRIWTVVLESYVVDMPEGNSEDDTRMFADTVVKLNLQKLATVAEAMARNSGDGSGSQVT
Recorded result: x
//
Molecule: L117R: PYR1 mutant (protein, UniProt O49686 1-191, looked up, variant L117R) Abscisic acid receptor PYR1: MPSELTPEERSELKNSIAEFHTYQLDPGSCSSLHAQRIHAPPELVWSIVRRFDKPQTYKHFIKSCSVEQNFEMRVGCTRDVIVISGLPANTSTERLDILDDERRVTGFSIIGGEHRRTNYKSVTTVHRFEKENRIWTVVLESYVVDMPEGNSEDDTRMFADTVVKLNLQKLATVAEAMARNSGDGSGSQVT
Recorded result: x
//
Molecule: H115E: PYR1 mutant (protein, UniProt O49686 1-191, looked up, variant H115E) Abscisic acid receptor PYR1: MPSELTPEERSELKNSIAEFHTYQLDPGSCSSLHAQRIHAPPELVWSIVRRFDKPQTYKHFIKSCSVEQNFEMRVGCTRDVIVISGLPANTSTERLDILDDERRVTGFSIIGGEERLTNYKSVTTVHRFEKENRIWTVVLESYVVDMPEGNSEDDTRMFADTVVKLNLQKLATVAEAMARNSGDGSGSQVT
Recorded result: x
//
Molecule: F61S: PYR1 mutant (protein, UniProt O49686 1-191, looked up, variant F61S) Abscisic acid receptor PYR1: MPSELTPEERSELKNSIAEFHTYQLDPGSCSSLHAQRIHAPPELVWSIVRRFDKPQTYKHSIKSCSVEQNFEMRVGCTRDVIVISGLPANTSTERLDILDDERRVTGFSIIGGEHRLTNYKSVTTVHRFEKENRIWTVVLESYVVDMPEGNSEDDTRMFADTVVKLNLQKLATVAEAMARNSGDGSGSQVT
Recorded result: x
//
Molecule: L87A: PYR1 mutant (protein, UniProt O49686 1-191, looked up, variant L87A) Abscisic acid receptor PYR1: MPSELTPEERSELKNSIAEFHTYQLDPGSCSSLHAQRIHAPPELVWSIVRRFDKPQTYKHFIKSCSVEQNFEMRVGCTRDVIVISGAPANTSTERLDILDDERRVTGFSIIGGEHRLTNYKSVTTVHRFEKENRIWTVVLESYVVDMPEGNSEDDTRMFADTVVKLNLQKLATVAEAMARNSGDGSGSQVT
Recorded result: x
